- assay.target: human orexin-2 receptor (Homo sapiens (Human), UniProt O43614)
- Sequence (O43614 whole entry): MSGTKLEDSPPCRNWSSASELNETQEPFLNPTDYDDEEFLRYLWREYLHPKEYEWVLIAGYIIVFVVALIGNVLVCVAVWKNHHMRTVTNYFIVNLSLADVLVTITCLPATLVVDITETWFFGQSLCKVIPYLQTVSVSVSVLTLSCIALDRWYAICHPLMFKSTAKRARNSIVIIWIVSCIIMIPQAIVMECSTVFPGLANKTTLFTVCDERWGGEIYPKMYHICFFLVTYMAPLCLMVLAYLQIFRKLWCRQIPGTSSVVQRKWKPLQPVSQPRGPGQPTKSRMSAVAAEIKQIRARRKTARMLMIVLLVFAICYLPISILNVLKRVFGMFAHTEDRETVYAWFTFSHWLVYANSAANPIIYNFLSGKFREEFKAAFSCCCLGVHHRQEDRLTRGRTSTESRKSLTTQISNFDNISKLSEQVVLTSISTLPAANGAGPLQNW
- assay.overview: FLIPR Ca2+ Flux Assay, orexin-2 receptor (hOX2R FLIPR)
- assay.context: CHO cells expressing the human orexin-2 receptor; agonist 70 pM Ala-6,12 human orexin-A
Criterion: IC50 strictly under 30 nM. Met: met. Not met: not met.

compound_string=Cc1ccc(-n2nccn2)c(C(=O)N2C[C@H](n3ncc(C(C)(C)O)n3)CC[C@H]2C)c1 cat="not met"
compound_string=C[C@@H]1CC[C@@H](n2ncc(C(C)(C)O)n2)CN1C(=O)c1ccccc1-c1ccccc1 cat=met
compound_string=C[C@@H]1CC[C@@H](n2ncc(C(C)(C)O)n2)CN1C(=O)c1ccccc1OC(F)F cat=met
compound_string=Cc1noc(-c2c(F)cccc2C(=O)N2C[C@H](n3ncc(C(C)(C)O)n3)CC[C@H]2C)n1 cat="not met"
compound_string=Cc1cccc(C(=O)N2C[C@H](n3ncc(C(C)(C)O)n3)CC[C@H]2C)c1-n1nccn1 cat="not met"
compound_string=Cc1c(C(C)(C)O)cnn1[C@@H]1CC[C@@H](C)N(C(=O)c2ccccc2-n2nccn2)C1 cat="not met"
compound_string=Cc1nn([C@@H]2CC[C@@H](C)N(C(=O)c3cccnc3OCC(F)(F)F)C2)nc1C(C)(C)O cat=met
compound_string=C[C@@H]1CC[C@@H](n2cc(C(C)(C)O)cn2)CN1C(=O)c1ccccc1C1CC1 cat=met
compound_string=COC(=O)c1cnn([C@@H]2CC[C@@H](C)N(C(=O)c3ccccc3-n3nccn3)C2)n1 cat="not met"

###

This listing pairs compounds with measured IC50.
- assay.target: human orexin-2 receptor (Homo sapiens (Human), UniProt O43614)
- assay.overview: FLIPR Ca2+ Flux Assay, orexin-2 receptor (hOX2R FLIPR)
- Assay type: cell-based
- assay.context: CHO cells expressing the human orexin-2 receptor; agonist 70 pM Ala-6,12 human orexin-A
endpoint.name: IC50 (nM)

compound="C[C@@H]1CC[C@@H](n2ncc(C(C)(C)O)n2)CN1C(=O)c1cccc2ccnn12 [Example 57]" assay_target="human orexin-2 receptor (Homo sapiens (Human), UniProt O43614)" recorded_value=489
compound="C[C@@H]1CC[C@@H](n2cc(C(C)(C)O)cn2)CN1C(=O)c1ccccc1[C@H]1CC1(F)F [Example 86]" assay_target="human orexin-2 receptor (Homo sapiens (Human), UniProt O43614)" recorded_value=152
compound="CC(C)Oc1ccccc1C(=O)N1C[C@H](n2cc(C(C)(C)O)cn2)CC[C@H]1C [Example 81]" assay_target="human orexin-2 receptor (Homo sapiens (Human), UniProt O43614)" recorded_value=89.8
compound="C[C@@H]1CC[C@@H](n2nnc(C(C)(C)O)n2)CN1C(=O)c1ccccc1-n1nccn1 [Example 74]" assay_target="human orexin-2 receptor (Homo sapiens (Human), UniProt O43614)" recorded_value=44.9

These entries and their values trace back to patent US10010539B2.
